Reference source: patent US20090035322A1

CDC, Daudi EC50 reference
Biological target: T1, human CD20 (human, UniProt P11836 1-297)
T1 sequence: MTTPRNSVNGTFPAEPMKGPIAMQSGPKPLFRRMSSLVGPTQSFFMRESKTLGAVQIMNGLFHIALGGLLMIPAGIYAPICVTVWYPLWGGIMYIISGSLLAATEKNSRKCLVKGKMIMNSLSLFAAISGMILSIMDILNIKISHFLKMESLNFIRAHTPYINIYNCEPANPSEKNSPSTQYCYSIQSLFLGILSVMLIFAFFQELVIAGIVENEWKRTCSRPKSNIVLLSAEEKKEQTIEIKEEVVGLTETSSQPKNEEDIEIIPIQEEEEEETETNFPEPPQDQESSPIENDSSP
Assay: cell-based or functional assay
Number first, unit second.

// solved cases for CDC, Daudi EC50 follow
3B9-10 (antibody, V domains shown, Fully human IgG, constant region not specified; also called 3B9-10N) VH: EVQLVESGGGLVQPGRSLRLSCVASGFTFNDYAMHWVRQAPGKGLEWVSVISWNSDSIGYADSVKGRFTISRDNAKNSLYLQMHSLRAEDTALYYCAKDNHYGSGSYYYYQYGMDVWGQGTTVTVSS VL: EIVMTQSPATLSVSPGERATLSCRASQSVSSNLAWYQQKPGQAPRLLIYGTSTRATGIPARFSGSGSGTEFTLTISSLQSEDFAVYYCQQYNNWPLTFGGGTKVEIK	1860 pM
6B9-4 (antibody, V domains shown, Fully human IgG, constant region not specified; also called 6B9-4N) VH: EEQLVESGGDLVQPGRSLRLSCAASGFTFHDYTMHWVRQAPGKGLEWVSGISWNSGSIGYADSVKGRFTISRDNAKNSLYLQMNSLRIEDTALYYCAKDPSYGSGSYYYYYGMDVWGQGTTVTVSS VL: EIVLTQSPATLSLSPGERATLSCRASQSVSSYLVWYQQRPGQAPRLLIYEASNRATGIPARFSGSGSGTDFTLTISSLESEDFAVYYCQQRSNWPLTFGGGTKVEIK	340 pM

Request: Can you look up the measured CDC, Daudi EC50 of 2B7-7 (antibody, V domains shown, Fully human IgG, constant region not specified; also called 2B7-7N) VH: EVQLVESGGGLVQPGRSLRLSCAASGFTFRDYTMHWVRQGPGKGLEWVSGISWNSDYIGYADSVKGRFTISRDNAKNSLYLQMNSLRVEDTALYYCAKLSGTYRDYFYGVDVWGQGTTVTVSS VL: EIVLTQSPATLSLSPGERAALSCRASQSVSNYLAWYQQKPGQAPRLLIYDASNRATGIPARFSGSGSGTDFTLTISSLEPEDFAVYYCQQRSNWPLTFGGGTKVEIR for me?
Response: 240 pM
